Hello, the source for this data is paper PMC8722130, in case you need it.

# system.name: uracil DNA-glycosylase (UDG) (Homo sapiens, UniProt P13051)
# Sequence (P13051 whole entry): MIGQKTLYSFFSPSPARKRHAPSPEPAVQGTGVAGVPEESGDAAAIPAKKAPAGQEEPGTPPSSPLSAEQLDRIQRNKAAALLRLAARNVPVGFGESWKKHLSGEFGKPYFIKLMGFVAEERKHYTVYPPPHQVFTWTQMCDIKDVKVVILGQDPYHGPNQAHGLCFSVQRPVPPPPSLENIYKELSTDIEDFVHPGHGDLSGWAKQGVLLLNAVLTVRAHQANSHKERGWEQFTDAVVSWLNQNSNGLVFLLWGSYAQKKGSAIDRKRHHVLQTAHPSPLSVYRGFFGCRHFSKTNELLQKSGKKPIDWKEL
endpoint.name: Kd

[[record]]
structure_smiles_string = "O=C(O)C1=CC(=C(c2ccc(O)c(C(=O)O)c2)c2ccc(O)c(C(=O)O)c2)C=CC1=O"
endpoint_name = "Kd"
assay_result = "< 0.7 µM"

